These entries and their values trace back to PubChem BioAssay AID1996.

# appliedConditions: buffer; pH 7.4; 200.0 µM
propertyName: solubility kinetic

compound=O=C1CCc2cc(S(=O)(=O)Nc3ccc(F)cc3)ccc2N1 result="> 48.1 µg/mL"
compound=Cn1c(O)c(/C=C2/C=CC=N2)c(=O)[nH]c1=O result="> 32.9 µg/mL"
compound=Cc1onc(-c2ccccc2Cl)c1C(=O)N1CCN(C)CC1 result="> 48 µg/mL"
compound="CC1CN(Cc2cc(=O)oc3cc(O)ccc23)CC(C)O1 (configuration not stated)" result="> 43.4 µg/mL"
compound=Cc1ccccc1Cn1c(C)nc2ccccc21 result="> 35.4 µg/mL"
compound=O=C(NNC(=O)c1ccncc1)c1ccccc1 result="> 36.2 µg/mL"
compound=Cc1ccccc1C(=O)NC(=S)N(Cc1ccccc1)c1ccccn1 result="> 54.2 µg/mL"
compound="NC(=O)CN1CCCC1c1ccc2c(c1)OCCO2 (configuration not stated)" result="> 39.3 µg/mL"
compound=O=C(c1ccccc1)c1nccn1-c1ccc(Cl)nn1 result="> 42.7 µg/mL"
compound=CC(=O)N(C)c1ccc(NS(=O)(=O)c2cccc3nsnc23)cc1 result="> 54.4 µg/mL"
compound=COc1cccc(C(=O)Nc2ccc(NC(=O)Cc3ccccc3)cc2)c1 result="< 0.4 µg/mL"
compound=O=[N+]([O-])c1cc(C(F)(F)F)ccc1N1CCN(CCO)CC1 result="> 47.9 µg/mL"

###

Reported solubility kinetic is given for each of the following compounds.
# appliedConditions: buffer; pH 7.4; 200.0 µM
propertyName: solubility kinetic

compound=CS(=O)(=O)N1CCN(c2nc3ccc(Cl)cc3s2)CC1 result="< 0.2 µg/mL"
compound=CCC(=O)c1ccc(OC(=O)c2cnccn2)cc1 result="> 38.4 µg/mL"
compound="CC1CC1C(=O)Nc1nc2ccc(S(C)(=O)=O)cc2s1 (stereo not drawn)" result="> 46.6 µg/mL"

###

# appliedConditions: buffer; pH 7.4; 200.0 µM
propertyName: solubility kinetic

compound="CCCCOc1cc(CC2CNC(=O)N2)ccc1OC (stereo unspecified)" result="> 41.8 µg/mL"
compound=O=C(CN1CCC(c2nc3ccccc3s2)CC1)N1CCCCC1 result="> 51.5 µg/mL"
compound="OCCC1CN(CC#Cc2ccccc2)CCN1C1CCCC1 (stereo unspecified)" result="> 46.9 µg/mL"
compound=NC(=O)c1cnn(-c2ccc3ccccc3c2)c1N result="> 37.8 µg/mL"
compound=CCOC(=O)N1CCN(C(=O)Cc2ccccc2[N+](=O)[O-])CC1 result="> 48.2 µg/mL"
compound=CN(C)S(=O)(=O)N1CCN(C(=O)c2ccc3c(c2)OCO3)CC1 result="> 51.2 µg/mL"
compound=COC(=O)N1CCN(CCc2ccccc2)CC1 result="> 37.2 µg/mL"
compound=O=C(c1ccc([N+](=O)[O-])cc1)N1C=CC(C(F)(F)F)=NCC1 result="> 47 µg/mL"
compound=CC(=O)c1ccc(Nc2c(C)n(C)n(-c3ccccc3)c2=O)cc1 result="> 48.2 µg/mL"
compound=Cc1cccnc1NC(=O)CNC(=O)c1cccs1 result="> 41.3 µg/mL"
compound="CC(C)(C)NC(=O)C1CC(=O)N(CCc2ccc(F)cc2)C1 (stereo unspecified)" result="> 46 µg/mL"

###

Reported solubility kinetic is given for each of the following molecules.
# appliedConditions: buffer; pH 7.4; 200.0 µM
propertyName: solubility kinetic

molecule="O=C(Nc1ccccc1)C1COc2ccccc2O1 (centres undefined)" propertyname="solubility kinetic" result="30.1 µg/mL"
molecule=CN(NC(=O)c1ccccc1F)c1ccc([N+](=O)[O-])cn1 propertyname="solubility kinetic" result="> 43.5 µg/mL"
molecule="O=C(COC(=O)CC1CC2CCC1C2)NCc1ccc(F)cc1 (centres undefined)" propertyname="solubility kinetic" result="46.1 µg/mL"
molecule=COc1cc(CC(=O)O)c([N+](=O)[O-])cc1OC propertyname="solubility kinetic" result="> 36.2 µg/mL"
molecule="CC1(C)C(C=C(Cl)Cl)C1C(=O)NC(O)C(=O)c1ccccc1 (centres undefined)" propertyname="solubility kinetic" result="10.8 µg/mL"
molecule=C=CCN=C1CCCc2c1[nH]c1ccc(C)cc21 propertyname="solubility kinetic" result="10.3 µg/mL"
molecule=Cc1ccc(CSCC(=O)Nc2ccccc2)cc1 propertyname="solubility kinetic" result="33.4 µg/mL"
molecule=O=C1N=C(N2CCCC2)S/C1=C\C=C\c1ccccc1 propertyname="solubility kinetic" result="10.2 µg/mL"
molecule=CCc1ccc(OCC(=O)NC(C)C)cc1 propertyname="solubility kinetic" result="30.9 µg/mL"
molecule=Clc1ccc2c(c1)C(N1CCNCC1)=Nc1ccccc1O2 propertyname="solubility kinetic" result="34.4 µg/mL"
molecule=CCCCCCCn1ccc(O)c(CC(=O)OC)c1=O propertyname="solubility kinetic" result="> 42.2 µg/mL"
molecule="O=C1Nc2ccc(Br)cc2C(c2ccccc2)=NC1O (centres undefined)" propertyname="solubility kinetic" result="> 49.7 µg/mL"
molecule="CC(OC(=O)CC1CCCCC1)C(=O)Nc1cccc(C#N)c1 (centres undefined)" propertyname="solubility kinetic" result="37.1 µg/mL"
molecule=NC(=O)c1ccsc1NC(=O)COC(=O)CCOc1ccccc1 propertyname="solubility kinetic" result="16.9 µg/mL"
molecule=CC(C)CC(=O)Nc1ccc(Cc2ccncc2)cc1 propertyname="solubility kinetic" result="> 40.3 µg/mL"
molecule=CCCNC(=S)Nc1cc2oc3ccccc3c2cc1OC propertyname="solubility kinetic" result="0.4 µg/mL"
molecule=Cc1ccc(OCC(=O)Nc2ccc(NC(=O)c3ccccc3)c(C)c2)cc1 propertyname="solubility kinetic" result="1 µg/mL"
molecule=Cc1cc(=O)oc2cc(OCC(=O)NC3CCCCC3)c(Cl)cc12 propertyname="solubility kinetic" result="4.6 µg/mL"
molecule=COc1ccc(C(=O)NC2CCN(C(=O)NCc3ccccc3)CC2)cc1 propertyname="solubility kinetic" result="5.4 µg/mL"
molecule=c1ccc(-c2nc3ccccn3c2-c2ccccc2)cc1 propertyname="solubility kinetic" result="10.1 µg/mL"
molecule="Cc1ccc(-c2csc(NC3OC(=O)c4ccccc43)n2)cc1 (centres undefined)" propertyname="solubility kinetic" result="0.4 µg/mL"
molecule=O=[N+]([O-])c1ccc(N2CCN(c3ccc(F)cc3)CC2)nc1 propertyname="solubility kinetic" result="0.3 µg/mL"
molecule="CC(C)CCNC(=O)C1CCC(=O)N1CCc1ccccc1 (centres undefined)" propertyname="solubility kinetic" result="42.8 µg/mL"
molecule=Cn1c(=O)c2ccccc2n(CC(=O)NCCC2=CCCCC2)c1=O propertyname="solubility kinetic" result="14.6 µg/mL"
molecule=Cn1cccc1C(=O)OCC(=O)NCCCc1ccccc1 propertyname="solubility kinetic" result="> 45.1 µg/mL"
molecule=O=C(COc1cccc2cccnc12)NCc1cccs1 propertyname="solubility kinetic" result="37.6 µg/mL"
molecule=CC(C)C(=O)OCC(=O)NCc1ccccc1Cl propertyname="solubility kinetic" result="37.6 µg/mL"
molecule="O=C(O)C1CC(O)CN1C(=S)Nc1ccccc1 (centres undefined)" propertyname="solubility kinetic" result="> 39.9 µg/mL"
molecule=NC(=O)Nc1ccc(C(=O)OCC(=O)c2c[nH]c3ccccc23)cc1 propertyname="solubility kinetic" result="4.2 µg/mL"
molecule=CC(C)c1ccc(CNC(=O)C(=O)NCCCn2ccnc2)cc1 propertyname="solubility kinetic" result="45.4 µg/mL"
molecule=CCOc1ccc(S(=O)(=O)/N=C(\N)c2ccccc2)cc1 propertyname="solubility kinetic" result="> 45.7 µg/mL"
molecule=CC(=O)c1c(C)c(C)c2n1CCn1c(C)ccc1-2 propertyname="solubility kinetic" result="13.4 µg/mL"
molecule=CCCS(=O)(=O)c1cscc1NC(=O)c1c(-c2c(F)cccc2Cl)noc1C propertyname="solubility kinetic" result="0.9 µg/mL"
molecule=COc1ccc2cc(Br)ccc2c1CC(=O)NCCCN1CCOCC1 propertyname="solubility kinetic" result="> 63.2 µg/mL"
